Source of measurements: patent US7157596B2

Entries and their IC50
Target: bovine pancreatic trypsin (Bos taurus, UniProt P00760)
Sequence (P00760 24-246): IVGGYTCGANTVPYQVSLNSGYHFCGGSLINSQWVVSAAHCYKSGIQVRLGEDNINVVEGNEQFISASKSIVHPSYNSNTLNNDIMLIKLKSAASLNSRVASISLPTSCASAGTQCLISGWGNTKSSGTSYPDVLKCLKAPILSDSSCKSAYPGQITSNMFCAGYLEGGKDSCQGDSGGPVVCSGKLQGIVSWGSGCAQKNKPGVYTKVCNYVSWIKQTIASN
measure: IC50

[[record]]
smilesentry = "N=C(N)NCCC[C@@H](C=O)NC(=O)CNC(=O)[C@@](CCC(=O)O)(Cc1cccc(C(=N)N)c1)NC(=O)Oc1ccccc1"
measure = "IC50"
result = "250 to 500 nM"

[[record]]
smilesentry = "COC(=O)N[C@](CCC(=O)O)(Cc1cccc(C(=N)N)c1)C(=O)N[C@@H](C)C(=O)N[C@H](C=O)CCCNC(=N)N"
measure = "IC50"
result = "500 to 2500 nM"

[[record]]
smilesentry = "CCOC(=O)N[C@](CCC(=O)O)(Cc1cccc(C(=N)N)c1)C(=O)NCC(=O)N[C@H](C=O)CCCNC(=N)N"
measure = "IC50"
result = "> 2500 nM"

[[record]]
smilesentry = "COC(=O)N[C@](CCC(=O)O)(Cc1ccccc1)C(=O)NCC(=O)N[C@H](C=O)CCCNC(=N)N"
measure = "IC50"
result = "500 to 2500 nM"


---

pIC50: −log10 of the molar value.
A set of compounds tested on UniProt P00747, with measured pIC50:
measure: pIC50

[[record]]
compound = "COC(=O)CCC(N)(Cc1cccc(C(=N)N)c1)C(=O)NCC(=O)NC(C=O)CCCNC(=N)N (stereo not drawn)"
result = "5.60 to 6.30"

[[record]]
compound = "CC(C)COC(=O)N[C@](CCC(=O)O)(Cc1cccc(C(=N)N)c1)C(=O)NCC(=O)N[C@H](C=O)CCCNC(=N)N"
result = "< 5.60"

[[record]]
compound = "N=C(N)NCCC[C@@H](C=O)NC(=O)CNC(=O)[C@@](N)(CCC(=O)O)Cc1cccc(C(=N)N)c1"
result = "5.60 to 6.30"

[[record]]
compound = "N=C(N)NCCC[C@@H](C=O)NC(=O)CNC(=O)[C@@](CCC(=O)O)(Cc1cccc(C(=N)N)c1)NC(=O)Oc1ccccc1"
result = "< 5.60"

[[record]]
compound = "COC(=O)N[C@](CCC(=O)O)(Cc1cccc(C(=N)N)c1)C(=O)NCC(=O)N[C@H](C=O)CCCNC(=N)N"
result = "< 5.60"

[[record]]
compound = "CCNC(=O)N[C@](CCC(=O)O)(Cc1cccc(C(=N)N)c1)C(=O)NCC(=O)N[C@H](C=O)CCCNC(=N)N"
result = "< 5.60"

[[record]]
compound = "COC(=O)N[C@](CCC(=O)O)(Cc1ccccc1)C(=O)NCC(=O)N[C@H](C=O)CCCNC(=N)N"
result = "< 5.60"

[[record]]
compound = "COC(=O)N[C@](CCC(=O)O)(Cc1cccc(C)c1)C(=O)N[C@@H](C)C(=O)N[C@H](C=O)CCCNC(=N)N"
result = "5.60 to 6.30"

[[record]]
compound = "COC(=O)N[C@](CCC(=O)O)(Cc1cccc(C(=N)N)c1)C(=O)N[C@@H](C)C(=O)N[C@H](C=O)CCCNC(=N)N"
result = "5.60 to 6.30"

[[record]]
compound = "N=C(N)NCCCC(C=O)NC(=O)CNC(=O)C(CCC(=O)O)(Cc1cccc(C(=N)N)c1)NS(=O)(=O)Cc1ccccc1 (stereo not drawn)"
result = "< 5.60"

[[record]]
compound = "CC(=O)N[C@](CCC(=O)O)(Cc1cccc(C(=N)N)c1)C(=O)NCC(=O)N[C@H](C=O)CCCNC(=N)N"
result = "< 5.60"

[[record]]
compound = "CCOC(=O)N[C@](CCC(=O)O)(Cc1cccc(C(=N)N)c1)C(=O)NCC(=O)N[C@H](C=O)CCCNC(=N)N"
result = "< 5.60"

